From: PubChem BioAssay AID720511

# Test Name: F508del CFTR correction, initial screen, CFBE line, single point (AID 720511);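 further: cells transiently co-express mutant CFTR-F508del with the halide-sensitive YFP; corrector assay measuring rescue of mutant channel to the surface after 24 h compound exposure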
# Measurement Parameters: CFBE cells, YFP halide quenching, at 7.58 µM, stronger effect = higher value, % fluorescence drop versus neutral controls, stimulated with forskolin plus potentiator P3
The whole screen tested about 350,000 compounds, of which about 1,300 (0.37%) were called active. The list comes from a sample in which actives are over-represented; it also holds close analogues and randomly drawn compounds.
Recorded activity (quench increase) values for a group of compounds are listed next.
Metric Name: activity (quench increase) (%)

Compound: COc1ccc(NC(=O)C/C(C)=N/NC(=O)c2cnccn2)cc1Cl
Metric Name: activity (quench increase)
Readout Value: 0.245
//
Compound: Cc1ccc(S(=O)(=O)N2C[C@H](O)COC[C@H]3O[C@H](CC(=O)N[C@H]4CCN(Cc5ccccc5)C4)CC[C@@H]32)cc1
Metric Name: activity (quench increase)
Readout Value: 0.736
//
Compound: CCOC(=O)N1CCN(S(=O)(=O)c2ccc3c(c2)C(C)C(=O)N3)CC1 (stereo unspecified)
Metric Name: activity (quench increase)
Readout Value: 8.05
//
Compound: COc1ccc2c3c([nH]c2c1)[C@H](CO)N(C(=O)c1ccccc1)CC31CN(C(=O)Nc2cccc(F)c2)C1
Metric Name: activity (quench increase)
Readout Value: 0.989
//
Compound: COc1ccc(-c2c(C)cc3oc(=O)cc(-c4ccccc4)c3c2C)cc1F
Metric Name: activity (quench increase)
Readout Value: 3.75
//
Compound: CCCNC(=O)N1[C@H](CO)[C@@H]2c3ccccc3N(C(=O)C3CCOCC3)C[C@@H]21
Metric Name: activity (quench increase)
Readout Value: 2.24
//
Compound: C[C@@H]1CN([C@H](C)CO)C(=O)c2cc(NS(=O)(=O)c3ccc(Cl)cc3)ccc2O[C@@H]1CN(C)CC1CCCCC1
Metric Name: activity (quench increase)
Readout Value: -0.515
//
Compound: Cc1cc(Nc2ccc(Br)cc2)nc2ccccc12
Metric Name: activity (quench increase)
Readout Value: 10.3
//
Compound: COc1ccc(-c2c(C)cc3oc(=O)cc(-c4ccccc4)c3c2C)cc1C=O
Metric Name: activity (quench increase)
Readout Value: 0.386
//
Compound: CCOC(=O)C(C)Oc1cccc2c(=O)n(CC(=O)NCCc3ccc(OC)c(OC)c3)ccc12 (stereo unspecified)
Metric Name: activity (quench increase)
Readout Value: 2.66
//
Compound: COc1ccc(N2CCN(S(=O)(=O)c3ccc4c(c3)NC(=O)C(C)C(=O)N4)CC2)cc1 (stereo unspecified)
Metric Name: activity (quench increase)
Readout Value: 0.269

----------
# Test Name: F508del CFTR correction, initial screen, CFBE line, single point (AID 720511);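 further: cells transiently co-express mutant CFTR-F508del with the halide-sensitive YFP; corrector assay measuring rescue of mutant channel to the surface after 24 h compound exposure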
# Measurement Parameters: CFBE cells, YFP halide quenching, at 7.58 µM, stronger effect = higher value, % fluorescence drop versus neutral controls, stimulated with forskolin plus potentiator P3
The whole screen tested about 350,000 compounds, of which about 1,300 (0.37%) were called active. This is one part of a sample in which actives are shown more often than they occur.

Molecule: COc1cccc(NC(=O)COc2cc(C)cc3oc(=O)cc(C)c23)c1
activity (quench increase): 2.8% (inactive)

Molecule: C[C@@H]1CN([C@H](C)CO)C(=O)Cc2cc(NS(=O)(=O)c3ccc(F)cc3)ccc2O[C@H]1CN(C)C
activity (quench increase): -0.0265% (inactive)

Molecule: COc1ccc(NC(=O)Nc2ccc3c(c2)[C@H]2C[C@H](CC(=O)NC4CCCC4)O[C@H](CO)[C@H]2O3)cc1
activity (quench increase): 2.1% (inactive)

Molecule: C[C@H](CO)N1C[C@H](C)[C@H](CN(C)C(=O)Nc2ccccc2)Oc2ccc(NC(=O)C3CC3)cc2CC1=O
activity (quench increase): 1.47% (inactive)

Molecule: C[C@H]1CN([C@@H](C)CO)C(=O)c2cccc(NS(=O)(=O)c3cccs3)c2O[C@H]1CN(C)Cc1ccc(C(=O)Nc2ccccc2N)cc1
activity (quench increase): 0.531% (inactive)

Molecule: CCOC(=O)c1c(NC(=O)C2CC=CCC2C(=O)O)sc(C)c1CC (centres undefined)
activity (quench increase): 0.585% (inactive)

Molecule: O=C(N[C@H]1CC[C@H](CCn2cc(-c3ccccc3F)nn2)O[C@@H]1CO)c1ccc2c(c1)OCO2
activity (quench increase): -1.87% (inactive)

Molecule: CCC1CCC2(CC1)NC(=O)N(CC(=O)Nc1ccc(OC)cc1)C2=O (centres undefined)
activity (quench increase): 4.71% (inactive)

Molecule: C[C@H](CO)N1C[C@H](C)[C@@H](CN(C)S(=O)(=O)c2ccccc2)Oc2ncc(-c3ccncc3)cc2C1=O
activity (quench increase): 0.7% (inactive)

Molecule: COc1ccc(CN(C)C[C@@H]2OCCCC[C@@H](C)Oc3ccc(NC(=O)Nc4ccc(OC)cc4)cc3C(=O)N([C@@H](C)CO)C[C@@H]2C)cc1
activity (quench increase): -0.139% (inactive)

Molecule: COc1cc(OC)c2c(-c3cccc(-c4cccc(N)c4)c3)cc(=O)oc2c1
activity (quench increase): 8.2% (active)

Molecule: C[C@@H]1CCCCO[C@@H](CN(C)Cc2ccncc2)[C@H](C)CN([C@@H](C)CO)C(=O)c2cc(N(C)C)ccc2O1
activity (quench increase): -0.227% (inactive)

Molecule: CCCNC(=O)[C@@H]1[C@@H](CO)[C@@H]2Cn3c(ccc(/C=C/c4ccccc4)c3=O)[C@H]1N2CCC
activity (quench increase): 3.14% (inactive)

Molecule: COCC(=O)Nc1ccc2c(c1)OC[C@@H](C)N(C(=O)c1ccncc1)C[C@@H](C)[C@@H](OC)CN(C)C2=O
activity (quench increase): -2.81% (inactive)
